assay: Compound was evaluated for toxicity in necrosis using MT2 assay at 25 uM concentration at 24 hr; settings: human
quantity: Cell death (%)
# value in %; strip the unit string

Reference set (6 entries):
C=C1C(=O)c2ccc3ccccc3c2[C@@H](c2cc(OC)c(OC)c(OC)c2)[C@@H]1C(=O)OC
95
COc1cc(C(O)[C@@H]2C(=O)OCC2C(=O)c2cccc3ccccc23)cc(OC)c1OC (stereo partly drawn)
32.1
COc1cc2c(c(OC)c1OC)[C@]13C(=O)OC[C@H]1[C@@H](C)c1cccc4cccc(c14)[C@@H]23
7.8
COc1cc(C(O)[C@H]2C(=O)OCC2C2(c3ccc4ccccc4c3)SCCCS2)cc(OC)c1OC (stereo partly drawn)
11.4
COc1cc([C@@H]2c3cccc4cccc(c34)C3(SCCCS3)[C@H](CO)[C@@H]2CO)cc(OC)c1OC
7.9
CCn1c2ccccc2c2cc(C3(C4COC(=O)C4)SCCCS3)ccc21 (stereo not drawn)
4.9

Task item: Quick one: give measured Cell death for `COc1cc([C@@H]2c3cccc4cccc(c34)C3(SCCCS3)[C@@H]3COC(=O)[C@@H]23)cc(OC)c1OC`
Reply: 10.3

* * *

assay: Compound was evaluated for toxicity in necrosis using MT2 assay at 25 uM concentration at 24 hr; conditions: human
The following compounds are listed with their measured Cell death values.
API: value field is a number in %; no unit string.

Here are 3 compounds together with their reported answers.
CCn1c2ccccc2c2cc(C3(C4COC(=O)[C@@H]4C(O)c4cc(OC)c(OC)c(OC)c4)SCCCS3)ccc21 (some centres undefined)
4.6
O=C1CC(C2(c3cccc4ccccc34)SCCCS2)CO1 (centres undefined)
2.9
COc1cc([C@@H]2c3c(ccc4ccccc34)C(=O)[C@H]3COC(=O)[C@@H]23)cc(OC)c1OC
5.5

Task item: Answer with reported Cell death of COc1cc(C2C(=O)OCC2C(=O)c2cccc3ccccc23)cc(OC)c1OC (centres undefined)
Reply: 6.2

* * *

test system: Human immunodeficiency virus 1; test: Compound was evaluated for anti-Tat activity in the HeLa-TAT-Luc cell assay against human immunodeficiency virus at 25 uM concentration (Untreated cells); assay type: functional
Entries annotated with measured inhibition at 25 µM
API: value field is a number in %; no unit string.

Sample answers from the record:
COc1cc(C2C(=O)OCC2C(=O)c2cccc3ccccc23)cc(OC)c1OC (stereo not drawn)
11.6
COc1cc(C(O)[C@H]2C(=O)OCC2C2(c3ccc4ccccc4c3)SCCCS2)cc(OC)c1OC (stereo partly drawn)
36.6
COC(=O)[C@H]1[C@H](c2cc(OC)c(OC)c(OC)c2)c2c(ccc3ccccc23)C(=O)[C@]12CCN=N2
38.8
COc1cc(C(O)[C@@H]2C(=O)OCC2C(=O)c2cccc3ccccc23)cc(OC)c1OC (stereo partly drawn)
1.6
COc1cc([C@@H]2c3cccc4cccc(c34)C3(SCCCS3)[C@@H]3COC(=O)[C@@H]23)cc(OC)c1OC
-35.9
CCn1c2ccccc2c2cc(C3(C4COC(=O)C4)SCCCS3)ccc21 (stereo not drawn)
43.4
C=C1C(=O)c2ccc3ccccc3c2[C@@H](c2cc(OC)c(OC)c(OC)c2)[C@@H]1C(=O)OC
56.2
O=C1CC(C2(c3cccc4ccccc34)SCCCS2)CO1 (stereo not drawn)
6

Task item: For the compound CCn1c2ccccc2c2cc(C3(C4COC(=O)[C@@H]4C(O)c4cc(OC)c(OC)c(OC)c4)SCCCS3)ccc21 (stereo partly drawn) , give its measured inhibition at 25 µM value.
Reply: 11.9

Task item: Specify inhibition at 25 µM for `COc1cc([C@@H]2c3c(ccc4ccccc34)C(=O)[C@H]3COC(=O)[C@@H]23)cc(OC)c1OC` and stop.
Reply: -0.6

Task item: Query inhibition at 25 µM for `COc1cc2c(c(OC)c1OC)[C@]13C(=O)OC[C@H]1[C@@H](C)c1cccc4cccc(c14)[C@@H]23`
Reply: -53.1

Task item: Indicate the recorded inhibition at 25 µM value for this compound: `COc1cc([C@H]2c3c(ccc4ccccc34)C3(SCCCS3)[C@H]3COC(=O)[C@H]23)cc(OC)c1OC`
Reply: -9.1

Task item: Determine from records and report inhibition at 25 µM for `COc1cc([C@@H]2c3cccc4cccc(c34)C3(SCCCS3)[C@H](CO)[C@@H]2CO)cc(OC)c1OC`
Reply: 11.7
